test system: Glutamate NMDA receptor GRIN1/GRIN2B (Homo sapiens); experiment: Inhibition of human GluN1-1a/NR2B receptor expressed in transgenic mouse fibroblast cells assessed as inhibition of L-glutamate-induced excitotoxicity at 20 uM by measuring LDH activity by cell based assay
Experimental Endpoint: inhibition

Summary for this compound, `Cc1ccc2[nH]c3cc[n+](C)cc3c2c1.[I-]` : inhibition is < 50%

Record `Fc1ccc2[nH]c3c(c2c1)CN(Cc1ccccc1)CC3` . Reported inhibition: < 50%

Record `Fc1ccc2[nH]c3ccncc3c2c1` . Reported inhibition: < 50%

inhibition in this record for `Cc1ccc2[nH]c3c(c2c1)CN(Cc1ccccc1)CC3` : < 50%

Sure, the documented inhibition for `COc1ccc2[nH]c3cc[n+](C)cc3c2c1.[I-]` is < 50%

Field inhibition (entry `Cn1ccc2nc3ccccc3c-2c1.I` ) reads < 50%

Given item `CN1CCc2c(c3ccccc3n2CCCCCCCCCn2c3c(c4ccccc42)CN(C)CC3)C1` , the value recorded as its inhibition is < 50%

Just so you know, measured inhibition for `CN1CCc2c(c3ccccc3n2CCC(=O)N2c3ccccc3Sc3ccccc32)C1` came out at < 50%

Given item `[Br-].c1ccc(C[n+]2ccc3[nH]c4ccccc4c3c2)cc1` , the value recorded as its inhibition is < 50%

Lookup result for `COc1ccc2[nH]c3ccncc3c2c1` ; measured inhibition: < 50%

Input `C[n+]1ccc2[nH]c3ccc(F)cc3c2c1.[I-]` . Output inhibition: < 50%

The reported value for `c1ccc2c(c1)c1cnccc1n2CCCCCCCCCn1c2ccccc2c2cnccc21` in terms of inhibition is < 50%

Entry under test: `Cc1ccc2[nH]c3ccncc3c2c1` . Its inhibition was < 50%

Entry `c1ccc(CN2CCc3[nH]c4ccccc4c3C2)cc1` , inhibition reported as < 50%

Reported inhibition for `CN1CCc2[nH]c3ccccc3c2C1` was < 50%

Record `COc1ccc2[nH]c3c(c2c1)CN(Cc1ccccc1)CC3` . Reported inhibition: < 50%

====

biological target: Acetylcholinesterase (Homo sapiens); assay: Inhibition of recombinant human AChE expressed in HEK293 cells by Ellman's method
Sequence (P22303 whole entry): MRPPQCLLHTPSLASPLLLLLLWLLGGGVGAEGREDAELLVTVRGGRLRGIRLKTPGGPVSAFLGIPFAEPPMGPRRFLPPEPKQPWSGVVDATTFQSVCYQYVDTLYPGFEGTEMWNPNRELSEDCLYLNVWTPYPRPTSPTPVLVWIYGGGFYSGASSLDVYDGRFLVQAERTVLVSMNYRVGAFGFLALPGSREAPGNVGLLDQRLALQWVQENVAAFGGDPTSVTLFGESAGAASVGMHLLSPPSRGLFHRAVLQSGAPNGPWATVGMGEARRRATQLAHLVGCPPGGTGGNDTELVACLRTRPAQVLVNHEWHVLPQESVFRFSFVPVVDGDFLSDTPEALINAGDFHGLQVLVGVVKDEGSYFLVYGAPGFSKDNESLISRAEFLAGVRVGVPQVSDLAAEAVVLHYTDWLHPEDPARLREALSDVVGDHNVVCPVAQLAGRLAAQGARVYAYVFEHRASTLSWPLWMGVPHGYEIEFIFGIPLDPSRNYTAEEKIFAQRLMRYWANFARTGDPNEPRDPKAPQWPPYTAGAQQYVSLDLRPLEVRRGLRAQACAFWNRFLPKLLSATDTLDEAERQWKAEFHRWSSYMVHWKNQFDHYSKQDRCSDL
pIC50: −log10 of the molar value.
# label = Satisfied if pIC50 >= 5 else Not satisfied

(Q) // inclusive: pIC50 at least 5? input: `O=C(CCn1c2ccncc2c2cc(F)ccc21)N1c2ccccc2Sc2ccccc21`
(A) Satisfied

(Q) # bool: pIC50 of `COc1ccc2c(c1)c1c[n+](C)ccc1n2CCC(=O)N1c2ccccc2Sc2ccccc21` >= 5
(A) Satisfied

(Q) Check the entry `Fc1ccc2[nH]c3c(c2c1)CN(Cc1ccccc1)CC3` : does pIC50 equal or exceed 5?
(A) Not satisfied

(Q) Hello, I need to know if `O=C(CCn1c2ccccc2c2cnccc21)N1c2ccccc2Sc2ccccc21` has measured pIC50 not below 5. Thanks!
(A) Satisfied

(Q) Confirm if pIC50 reported for the molecule `COc1ccc2[nH]c3ccncc3c2c1` is 5 or above.
(A) Not satisfied

(Q) Tell me whether pIC50 is at least 5 here: `COc1ccc2c(c1)c1cnccc1n2CCC(=O)N1c2ccccc2Sc2ccccc21`
(A) Satisfied

(Q) Could you tell me if the measured pIC50 of `Cc1ccc2[nH]c3ccncc3c2c1` reaches 5 or more?
(A) Not satisfied

(Q) Does the reported pIC50 for `Cc1ccc2[nH]c3c(c2c1)CN(Cc1ccccc1)CC3` fall at or above the 5 mark?
(A) Not satisfied

(Q) Can `C[n+]1ccc2c(c1)c1ccccc1n2CCC(=O)N1c2ccccc2Sc2ccccc21` be said to have pIC50 at or above 5?
(A) Satisfied

(Q) Determine whether this molecule has pIC50 no lower than 5: `C[n+]1ccc2c(c1)c1ccccc1n2CCCCCCCCCn1c2ccccc2c2c[n+](C)ccc21`
(A) Satisfied

(Q) Threshold query (pIC50 >= 5) on `c1ccc(CN2CCc3[nH]c4ccccc4c3C2)cc1`
(A) Not satisfied

(Q) Has `Cc1ccc2c(c1)c1c[n+](C)ccc1n2CCC(=O)N1c2ccccc2Sc2ccccc21` a recorded pIC50 greater than or equal to 5?
(A) Satisfied

(Q) Is pIC50 at least 5? Consider `C[n+]1ccc2[nH]c3ccc(F)cc3c2c1.[I-]`
(A) Satisfied

(Q) // inclusive: pIC50 at least 5? input: `Cc1ccc2c(c1)c1cnccc1n2CCC(=O)N1c2ccccc2Sc2ccccc21`
(A) Satisfied

====

biological target: Cholinesterase (Equus caballus, UniProt P81908); assay: Inhibition of recombinant equine BChE by Ellman's method
Sequence (P81908 whole entry): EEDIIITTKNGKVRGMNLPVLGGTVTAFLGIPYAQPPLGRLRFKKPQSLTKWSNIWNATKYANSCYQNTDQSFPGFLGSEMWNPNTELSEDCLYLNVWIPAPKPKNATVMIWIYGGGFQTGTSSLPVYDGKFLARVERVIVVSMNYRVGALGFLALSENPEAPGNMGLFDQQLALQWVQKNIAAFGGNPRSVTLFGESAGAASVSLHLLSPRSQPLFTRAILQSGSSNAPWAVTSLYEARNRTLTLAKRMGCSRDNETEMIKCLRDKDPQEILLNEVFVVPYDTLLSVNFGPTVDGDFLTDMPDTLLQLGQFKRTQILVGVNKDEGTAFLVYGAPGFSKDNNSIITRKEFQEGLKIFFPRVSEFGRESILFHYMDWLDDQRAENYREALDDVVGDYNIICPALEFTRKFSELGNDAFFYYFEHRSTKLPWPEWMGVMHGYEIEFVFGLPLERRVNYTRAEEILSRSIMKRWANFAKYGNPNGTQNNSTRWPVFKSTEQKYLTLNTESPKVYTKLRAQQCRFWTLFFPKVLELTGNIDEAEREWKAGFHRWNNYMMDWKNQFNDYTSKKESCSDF
For each entry below, report its IC50 value.
Give the number; µM is assumed, so skip it.

Quick note, IC50 for `c1ccc(CN2CCc3[nH]c4ccccc4c3C2)cc1` landed at 6.5

Data point: `COc1ccc2c(c1)c1cnccc1n2CCC(=O)N1c2ccccc2Sc2ccccc21` ; IC50 = 0.037

IC50 reported for this molecule `COc1ccc2c(c1)c1c[n+](C)ccc1n2CCC(=O)N1c2ccccc2Sc2ccccc21` : 0.041

The reported IC50 of the molecule `CN1CCc2c(c3ccccc3n2CCC(=O)N2c3ccccc3Sc3ccccc32)C1` was 0.17

Measured IC50 of `[Br-].c1ccc(C[n+]2ccc3[nH]c4ccccc4c3c2)cc1` : 1.9

The recorded IC50 for entry `C[n+]1ccc2c(c1)c1ccccc1n2CCC(=O)N1c2ccccc2Sc2ccccc21` equals 0.041

====

target: Cholinesterase (Equus caballus, UniProt P81908); experiment: Inhibition of recombinant equine BChE by Ellman's method
Provide the recorded IC50 for the entries that follow.
Write it as a number; the unit nM goes unstated.

Noted for `Cn1ccc2nc3ccccc3c-2c1.I` : its IC50 reads 890

Input `c1ccc2c(c1)[nH]c1ccncc12` . Output IC50: 1200

# IC50 of `O=C(CCn1c2ccccc2c2cnccc21)N1c2ccccc2Sc2ccccc21` = 8

Memo: `COc1ccc2[nH]c3cc[n+](C)cc3c2c1.[I-]` , reported IC50: 9800

Looking up `Cc1ccc2[nH]c3c(c2c1)CN(Cc1ccccc1)CC3` , I see its IC50 listed as 1400

// recorded IC50 for `O=C(CCn1c2ccncc2c2cc(F)ccc21)N1c2ccccc2Sc2ccccc21` : 8

IC50 reported for this compound `Fc1ccc2[nH]c3ccncc3c2c1` : 550

====

molecular target: Glutamate NMDA receptor; GRIN1/GRIN2A (Homo sapiens, UniProt Q05586+Q12879); test: Inhibition of human GluN1-1a/NR2A receptor expressed in transgenic mouse fibroblast cells assessed as inhibition of L-glutamate-induced excitotoxicity by measuring LDH activity by cell based assay
Sequence (Q12879 whole entry, other chains not shown): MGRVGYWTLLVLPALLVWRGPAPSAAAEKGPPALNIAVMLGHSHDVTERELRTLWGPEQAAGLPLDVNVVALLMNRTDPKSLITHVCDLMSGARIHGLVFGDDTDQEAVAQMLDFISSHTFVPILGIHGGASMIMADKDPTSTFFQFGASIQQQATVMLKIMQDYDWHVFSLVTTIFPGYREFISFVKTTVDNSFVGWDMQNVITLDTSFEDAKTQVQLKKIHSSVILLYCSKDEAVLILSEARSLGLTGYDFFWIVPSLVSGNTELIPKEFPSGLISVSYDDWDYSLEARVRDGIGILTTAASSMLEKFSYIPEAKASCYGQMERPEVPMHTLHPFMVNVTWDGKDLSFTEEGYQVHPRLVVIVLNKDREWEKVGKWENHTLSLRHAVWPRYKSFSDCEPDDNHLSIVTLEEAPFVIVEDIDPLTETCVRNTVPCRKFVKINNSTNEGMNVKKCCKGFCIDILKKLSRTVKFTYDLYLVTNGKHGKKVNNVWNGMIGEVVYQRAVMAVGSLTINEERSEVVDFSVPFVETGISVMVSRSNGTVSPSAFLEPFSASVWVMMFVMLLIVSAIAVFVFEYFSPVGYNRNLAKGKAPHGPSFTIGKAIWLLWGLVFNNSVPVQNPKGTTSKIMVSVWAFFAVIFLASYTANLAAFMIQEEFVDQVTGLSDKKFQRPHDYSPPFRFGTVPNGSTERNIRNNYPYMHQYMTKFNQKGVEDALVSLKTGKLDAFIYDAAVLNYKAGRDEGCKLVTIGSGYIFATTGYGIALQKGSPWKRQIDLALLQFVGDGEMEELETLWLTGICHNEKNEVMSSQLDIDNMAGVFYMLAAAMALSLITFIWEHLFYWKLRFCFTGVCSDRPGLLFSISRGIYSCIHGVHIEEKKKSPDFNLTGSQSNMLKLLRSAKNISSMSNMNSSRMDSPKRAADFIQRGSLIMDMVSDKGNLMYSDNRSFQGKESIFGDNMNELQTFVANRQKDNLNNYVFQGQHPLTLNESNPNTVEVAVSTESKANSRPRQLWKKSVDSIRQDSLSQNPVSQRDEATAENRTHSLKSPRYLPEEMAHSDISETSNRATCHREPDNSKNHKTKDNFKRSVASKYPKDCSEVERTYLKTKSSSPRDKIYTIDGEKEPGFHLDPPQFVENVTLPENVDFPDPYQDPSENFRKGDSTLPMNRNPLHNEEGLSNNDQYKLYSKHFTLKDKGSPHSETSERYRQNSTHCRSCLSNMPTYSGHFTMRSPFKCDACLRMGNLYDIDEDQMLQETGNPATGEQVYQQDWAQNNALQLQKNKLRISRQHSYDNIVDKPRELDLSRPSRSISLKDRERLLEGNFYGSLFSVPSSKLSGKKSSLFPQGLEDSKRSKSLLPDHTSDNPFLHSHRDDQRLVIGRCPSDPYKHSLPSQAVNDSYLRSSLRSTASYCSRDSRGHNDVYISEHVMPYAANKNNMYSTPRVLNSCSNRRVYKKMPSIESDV
pIC50: −log10 of the molar value.
Criterion: pIC50 meeting or surpassing 6. Met: Y. Not met: N.

(Q) # bool: pIC50 of `C[n+]1ccc2c(c1)c1cc(F)ccc1n2CCC(=O)N1c2ccccc2Sc2ccccc21` >= 6
(A) N

(Q) Is pIC50 for `O=C(CCn1c2ccncc2c2cc(F)ccc21)N1c2ccccc2Sc2ccccc21` at or above 6?
(A) N

(Q) Check this molecule for pIC50 at or above 6: `C[n+]1ccc2c(c1)c1ccccc1n2CCC(=O)N1c2ccccc2Sc2ccccc21`
(A) N

(Q) Check this molecule for pIC50 at or above 6: `COc1ccc2c(c1)c1c[n+](C)ccc1n2CCC(=O)N1c2ccccc2Sc2ccccc21`
(A) Y

(Q) Assess whether reported pIC50 for `O=C(CCn1c2ccccc2c2cnccc21)N1c2ccccc2Sc2ccccc21` sits at 6 or higher.
(A) N

====

target: Glutamate NMDA receptor; GRIN1/GRIN2B (Homo sapiens, UniProt Q05586+Q13224); experiment: Inhibition of human GluN1-1a/NR2B receptor expressed in transgenic mouse fibroblast cells assessed as inhibition of L-glutamate-induced excitotoxicity by measuring LDH activity by cell based assay
Sequence (Q13224 whole entry, looked up, other chains not shown): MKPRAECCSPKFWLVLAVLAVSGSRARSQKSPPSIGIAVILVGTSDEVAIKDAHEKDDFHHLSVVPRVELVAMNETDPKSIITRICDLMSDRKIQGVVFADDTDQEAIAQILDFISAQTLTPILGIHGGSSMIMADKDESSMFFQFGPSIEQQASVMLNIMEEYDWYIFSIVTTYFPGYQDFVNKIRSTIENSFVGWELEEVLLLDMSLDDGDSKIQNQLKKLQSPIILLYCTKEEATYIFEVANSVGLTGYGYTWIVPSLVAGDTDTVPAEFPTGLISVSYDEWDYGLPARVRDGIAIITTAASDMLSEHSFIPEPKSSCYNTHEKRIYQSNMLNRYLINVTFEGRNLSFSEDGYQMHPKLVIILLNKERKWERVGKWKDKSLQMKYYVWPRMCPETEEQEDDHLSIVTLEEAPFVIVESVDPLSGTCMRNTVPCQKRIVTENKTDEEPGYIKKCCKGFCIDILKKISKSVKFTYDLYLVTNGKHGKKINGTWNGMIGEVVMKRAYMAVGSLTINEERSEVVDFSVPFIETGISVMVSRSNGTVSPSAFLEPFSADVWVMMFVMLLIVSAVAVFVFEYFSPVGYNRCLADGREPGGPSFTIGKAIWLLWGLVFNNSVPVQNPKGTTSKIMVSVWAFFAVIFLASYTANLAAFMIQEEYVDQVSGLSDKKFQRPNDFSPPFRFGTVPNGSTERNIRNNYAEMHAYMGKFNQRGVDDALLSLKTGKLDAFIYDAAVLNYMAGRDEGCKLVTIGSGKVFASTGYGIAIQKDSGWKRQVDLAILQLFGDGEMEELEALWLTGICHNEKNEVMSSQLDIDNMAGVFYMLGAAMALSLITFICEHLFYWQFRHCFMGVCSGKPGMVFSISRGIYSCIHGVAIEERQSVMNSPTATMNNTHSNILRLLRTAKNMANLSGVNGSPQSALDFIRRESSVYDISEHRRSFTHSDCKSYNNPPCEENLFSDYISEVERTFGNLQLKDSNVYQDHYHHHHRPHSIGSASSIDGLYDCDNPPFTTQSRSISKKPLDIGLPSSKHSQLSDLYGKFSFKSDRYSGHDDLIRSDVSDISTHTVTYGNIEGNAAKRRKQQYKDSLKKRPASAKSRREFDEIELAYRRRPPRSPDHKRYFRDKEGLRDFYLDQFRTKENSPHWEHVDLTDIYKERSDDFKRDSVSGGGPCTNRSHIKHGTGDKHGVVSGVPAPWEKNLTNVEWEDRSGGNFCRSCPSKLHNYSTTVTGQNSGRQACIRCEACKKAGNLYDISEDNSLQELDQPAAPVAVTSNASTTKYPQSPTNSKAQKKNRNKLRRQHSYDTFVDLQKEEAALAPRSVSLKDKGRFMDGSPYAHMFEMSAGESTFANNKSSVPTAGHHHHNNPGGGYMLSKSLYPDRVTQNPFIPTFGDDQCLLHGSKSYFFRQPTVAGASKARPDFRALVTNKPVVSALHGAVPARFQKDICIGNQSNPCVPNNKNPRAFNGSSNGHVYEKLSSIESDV
Experimental Endpoint: pIC50
Note on pIC50: it is the negative log10 of concentration, concentration in mol/L.

So, `C[n+]1ccc2c(c1)c1ccccc1n2CCC(=O)N1c2ccccc2Sc2ccccc21` ? Its pIC50 was 5.85

The reported pIC50 of the compound `COc1ccc2c(c1)c1c[n+](C)ccc1n2CCC(=O)N1c2ccccc2Sc2ccccc21` was 6.70

// pIC50 lookup, compound = `C[n+]1ccc2c(c1)c1cc(F)ccc1n2CCC(=O)N1c2ccccc2Sc2ccccc21` , result: 5.68

Item: `O=C(CCn1c2ccncc2c2cc(F)ccc21)N1c2ccccc2Sc2ccccc21` | pIC50: 5.57

Value of measured pIC50 for the entry `Cc1ccc2c(c1)c1cnccc1n2CCC(=O)N1c2ccccc2Sc2ccccc21` : 5.82

Entry under test: `Cc1ccc2c(c1)c1c[n+](C)ccc1n2CCC(=O)N1c2ccccc2Sc2ccccc21` . Its pIC50 was 6.30

Form: compound = `O=C(CCn1c2ccccc2c2c[n+](Cc3ccccc3)ccc21)N1c2ccccc2Sc2ccccc21` ; pIC50 = 6.05

// recorded pIC50 for `O=C(CCn1c2ccccc2c2cnccc21)N1c2ccccc2Sc2ccccc21` : 5.52

Per the record, `COc1ccc2c(c1)c1cnccc1n2CCC(=O)N1c2ccccc2Sc2ccccc21` has pIC50 of 6.22
